- assayedSystem: Collagenase 3 (Homo sapiens)
- assayNotes: Affinity Biochemical interaction (FRET assay) EUB0000727a MMP13
measuredQuantity: IC50

INSERT INTO assay_data (compound, measured) VALUES
  ('Cn1nc(C(=O)NCc2ccc(C(=O)O)cc2)cc1-c1ccc2[nH]ccc2c1 [BI 4395]', '> 26 µM');

---

- assayedSystem: Transient receptor potential cation channel subfamily A member 1 (Homo sapiens)
- Sequence (O75762 whole entry): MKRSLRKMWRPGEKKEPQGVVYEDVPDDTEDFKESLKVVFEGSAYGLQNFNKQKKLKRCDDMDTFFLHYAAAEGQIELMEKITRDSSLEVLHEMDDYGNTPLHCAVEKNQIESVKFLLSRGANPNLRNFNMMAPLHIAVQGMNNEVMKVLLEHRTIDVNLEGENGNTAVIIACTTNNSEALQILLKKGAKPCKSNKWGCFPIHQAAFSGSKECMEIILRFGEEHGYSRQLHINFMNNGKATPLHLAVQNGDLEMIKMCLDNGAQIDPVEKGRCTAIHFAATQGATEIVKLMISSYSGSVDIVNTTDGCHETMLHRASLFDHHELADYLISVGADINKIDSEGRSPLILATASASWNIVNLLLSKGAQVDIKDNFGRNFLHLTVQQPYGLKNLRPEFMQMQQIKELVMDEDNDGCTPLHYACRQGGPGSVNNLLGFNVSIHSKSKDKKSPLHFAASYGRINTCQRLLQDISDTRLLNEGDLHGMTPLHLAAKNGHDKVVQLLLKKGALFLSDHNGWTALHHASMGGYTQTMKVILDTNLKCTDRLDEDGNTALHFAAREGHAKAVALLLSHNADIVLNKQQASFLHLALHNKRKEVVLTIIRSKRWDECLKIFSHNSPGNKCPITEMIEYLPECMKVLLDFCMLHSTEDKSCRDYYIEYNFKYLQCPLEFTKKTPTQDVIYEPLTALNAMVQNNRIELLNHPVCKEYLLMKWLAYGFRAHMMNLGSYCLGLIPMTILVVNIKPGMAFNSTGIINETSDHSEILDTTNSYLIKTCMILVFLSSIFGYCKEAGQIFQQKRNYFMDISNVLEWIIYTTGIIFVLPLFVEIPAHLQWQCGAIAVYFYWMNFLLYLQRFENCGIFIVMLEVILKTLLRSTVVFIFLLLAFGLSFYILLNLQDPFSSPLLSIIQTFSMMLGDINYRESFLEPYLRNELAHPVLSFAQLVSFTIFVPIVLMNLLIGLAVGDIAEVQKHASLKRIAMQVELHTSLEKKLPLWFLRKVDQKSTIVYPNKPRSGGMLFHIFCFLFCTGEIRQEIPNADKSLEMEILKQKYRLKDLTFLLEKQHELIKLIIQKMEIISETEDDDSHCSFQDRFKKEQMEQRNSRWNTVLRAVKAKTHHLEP
- assayNotes: Affinity Biochemical interaction (FLIPR-based Ca2+ assay (activated by 30 µM AITC)) EUB0000308b TRPA1
- Parameters: mode of action Antagonist, recommended concentration 1 uM
measuredQuantity: IC50 (µM)

INSERT INTO assay_data (structurenotation, measured) VALUES
  ('Clc1cccc(-c2nnnn2Cc2cccnc2)c1Cl', 0.067);

---

- assayedSystem: Protein AF-9 (Homo sapiens)
- Sequence (P42568 whole entry): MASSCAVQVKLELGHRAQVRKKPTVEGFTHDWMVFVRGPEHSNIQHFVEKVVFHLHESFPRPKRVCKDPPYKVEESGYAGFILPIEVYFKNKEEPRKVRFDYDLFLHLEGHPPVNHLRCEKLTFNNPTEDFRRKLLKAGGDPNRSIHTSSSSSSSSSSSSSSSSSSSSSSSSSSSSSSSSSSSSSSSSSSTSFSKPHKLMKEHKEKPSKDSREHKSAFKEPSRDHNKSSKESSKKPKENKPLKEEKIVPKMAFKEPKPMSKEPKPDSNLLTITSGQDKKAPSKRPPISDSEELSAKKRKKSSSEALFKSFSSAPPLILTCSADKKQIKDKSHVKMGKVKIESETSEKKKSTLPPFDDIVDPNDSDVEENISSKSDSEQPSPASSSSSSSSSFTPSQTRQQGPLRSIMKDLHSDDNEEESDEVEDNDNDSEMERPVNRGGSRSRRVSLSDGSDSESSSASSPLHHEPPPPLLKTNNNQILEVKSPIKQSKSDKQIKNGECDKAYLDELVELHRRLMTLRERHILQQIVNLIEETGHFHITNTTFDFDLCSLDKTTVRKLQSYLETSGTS
- assayNotes: Affinity Biochemical interaction (AlphaScreen assay) EUB0000283b MLLT3
- Design: mode of action Inhibitor, recommended concentration 1 uM
pIC50: −log10 of the molar value.
measuredQuantity: pIC50

INSERT INTO assay_data (structurenotation, assayedsystem, measured) VALUES
  ('C[C@H]1CCCN1Cc1nc2cc(NC(=O)c3ccc4cnccc4c3)ccc2[nH]1', 'Protein AF-9 (Homo sapiens)', 6.60);

---

- assayedSystem: Histone acetyltransferase KAT2B (Homo sapiens)
- Sequence (Q92831 whole entry): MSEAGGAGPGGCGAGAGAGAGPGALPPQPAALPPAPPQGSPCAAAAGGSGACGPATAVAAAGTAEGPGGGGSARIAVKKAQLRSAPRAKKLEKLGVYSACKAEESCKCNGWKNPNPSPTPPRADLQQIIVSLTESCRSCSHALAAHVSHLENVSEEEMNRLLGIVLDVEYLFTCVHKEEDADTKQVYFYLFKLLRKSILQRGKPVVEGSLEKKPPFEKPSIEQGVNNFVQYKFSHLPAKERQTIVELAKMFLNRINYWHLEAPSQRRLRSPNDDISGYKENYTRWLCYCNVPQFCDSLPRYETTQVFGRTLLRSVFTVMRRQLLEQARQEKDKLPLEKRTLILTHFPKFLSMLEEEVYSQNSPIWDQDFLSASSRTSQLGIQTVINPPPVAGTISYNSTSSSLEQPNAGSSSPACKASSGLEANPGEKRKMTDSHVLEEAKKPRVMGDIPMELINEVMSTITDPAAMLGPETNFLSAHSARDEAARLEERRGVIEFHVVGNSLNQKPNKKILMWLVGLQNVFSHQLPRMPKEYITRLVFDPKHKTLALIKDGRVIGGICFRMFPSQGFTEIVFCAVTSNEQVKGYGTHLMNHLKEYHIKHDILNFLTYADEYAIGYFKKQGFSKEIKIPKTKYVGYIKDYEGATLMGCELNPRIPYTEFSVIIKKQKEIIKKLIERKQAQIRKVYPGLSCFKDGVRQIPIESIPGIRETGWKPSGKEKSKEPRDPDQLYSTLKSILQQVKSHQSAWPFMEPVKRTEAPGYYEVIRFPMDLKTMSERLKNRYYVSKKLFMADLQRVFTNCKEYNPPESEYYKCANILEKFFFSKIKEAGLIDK
- assayNotes: Affinity Biochemical interaction (BROMOscan assay (DiscoverX)) EUB0000218c KAT2B
pIC50: −log10 of the molar value.
measuredQuantity: pIC50

INSERT INTO results (structurenotation, assayedsystem, measuredquantity, measured) VALUES
  ('Cc1nnc2c3ccccc3c(N[C@@H](C)[C@H](c3ccccc3)N(C)C)nn12', 'Histone acetyltransferase KAT2B (Homo sapiens)', 'pIC50', 7.32);

---

- assayedSystem: Transient receptor potential cation channel subfamily A member 1 (Homo sapiens)
- assayNotes: Affinity Biochemical interaction (FLIPR-based Ca2+ assay (activated by 30 µM AITC)) EUB0000547a TRPA1
- Set-up: mode of action Negative control for A-079, recommended concentration 1 uM
measuredQuantity: IC50

INSERT INTO measurements (structurenotation, assayedsystem, measuredquantity, measured) VALUES
  ('CCC(=N\O)/C(C)=C/c1ccc(F)c(C)c1', 'Transient receptor potential cation channel subfamily A member 1 (Homo sapiens)', 'IC50', '> 100 µM');

---

- assayedSystem: Sodium/hydrogen exchanger 1 (Homo sapiens, UniProt P19634)
- Sequence (P19634 whole entry): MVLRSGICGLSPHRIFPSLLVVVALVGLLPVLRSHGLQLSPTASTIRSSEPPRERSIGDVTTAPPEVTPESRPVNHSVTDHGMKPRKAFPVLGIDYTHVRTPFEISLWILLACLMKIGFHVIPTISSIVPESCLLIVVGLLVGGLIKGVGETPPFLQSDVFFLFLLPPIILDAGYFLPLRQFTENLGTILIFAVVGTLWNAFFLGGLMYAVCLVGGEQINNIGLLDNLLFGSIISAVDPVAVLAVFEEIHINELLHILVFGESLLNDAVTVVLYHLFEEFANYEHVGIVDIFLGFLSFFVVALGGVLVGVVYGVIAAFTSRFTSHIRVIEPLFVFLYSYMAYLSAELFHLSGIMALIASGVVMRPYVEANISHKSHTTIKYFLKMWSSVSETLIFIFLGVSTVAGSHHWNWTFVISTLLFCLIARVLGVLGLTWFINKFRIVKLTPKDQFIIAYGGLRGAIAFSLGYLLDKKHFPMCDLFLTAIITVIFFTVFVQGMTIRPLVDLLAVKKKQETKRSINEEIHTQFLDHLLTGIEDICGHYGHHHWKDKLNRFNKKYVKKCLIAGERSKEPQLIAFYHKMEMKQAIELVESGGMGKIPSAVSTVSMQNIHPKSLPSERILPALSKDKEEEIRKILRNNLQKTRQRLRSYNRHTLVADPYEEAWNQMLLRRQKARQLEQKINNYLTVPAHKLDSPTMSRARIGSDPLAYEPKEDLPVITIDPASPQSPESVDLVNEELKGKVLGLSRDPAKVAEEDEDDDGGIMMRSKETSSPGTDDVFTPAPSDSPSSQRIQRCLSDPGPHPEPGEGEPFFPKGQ
- assayNotes: Affinity Biochemical interaction (pHi change assay) EUB0000545a SLC9A1
pIC50: −log10 of the molar value.
measuredQuantity: pIC50

INSERT INTO assay_data (structurenotation, assayedsystem, measured) VALUES
  ('CC(=O)N1CCC(c2ccc(C(=O)NC3=NCCN3)cc2C(F)(F)F)CC1', 'Sodium/hydrogen exchanger 1 (Homo sapiens, UniProt P19634)', '< 5.00');

---

- assayedSystem: Protein farnesyltransferase subunit beta (Homo sapiens)
- Sequence (P49356 whole entry): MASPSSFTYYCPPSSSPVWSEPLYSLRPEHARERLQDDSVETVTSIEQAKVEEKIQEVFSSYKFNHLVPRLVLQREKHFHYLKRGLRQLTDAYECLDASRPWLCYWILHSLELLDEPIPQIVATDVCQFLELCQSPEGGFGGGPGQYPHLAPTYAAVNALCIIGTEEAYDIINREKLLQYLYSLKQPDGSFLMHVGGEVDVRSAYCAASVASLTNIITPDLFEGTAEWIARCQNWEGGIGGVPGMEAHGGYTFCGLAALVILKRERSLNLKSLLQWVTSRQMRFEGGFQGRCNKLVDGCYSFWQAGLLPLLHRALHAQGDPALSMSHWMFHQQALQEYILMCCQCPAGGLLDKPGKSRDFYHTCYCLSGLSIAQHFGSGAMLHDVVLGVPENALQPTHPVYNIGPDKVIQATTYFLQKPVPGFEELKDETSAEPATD
- assayNotes: Affinity Biochemical interaction (Scintillation proximity assay (SPA)) EUB0000736a FNTB
- Design: mode of action Negative control for ABT-100, recommended concentration 1 uM
pIC50: −log10 of the molar value.
measuredQuantity: pIC50

INSERT INTO measurements (structurenotation, measuredquantity, measured) VALUES
  ('Cn1cncc1[C@@](O)(COc1ccc(C#N)cc1-c1ccc(OC(F)(F)F)cc1)c1ccc(C#N)cc1', 'pIC50', '< 4.00');

---

- assayNotes: Affinity Biochemical interaction (FLIPR assay) EUB0000337aCl P2RY14
measuredQuantity: IC50

INSERT INTO results (structurenotation, measured) VALUES
  ('Cc1c(C(=O)O)cc(-c2ccc(C3CCNCC3)cc2)c2ccc(-c3ccc(C(F)(F)F)cc3)cc12', '4.38 µM');

---

- assayedSystem: Discoidin domain-containing receptor 2 (Homo sapiens, UniProt Q16832)
- Sequence (Q16832 whole entry, the tested form may be a part): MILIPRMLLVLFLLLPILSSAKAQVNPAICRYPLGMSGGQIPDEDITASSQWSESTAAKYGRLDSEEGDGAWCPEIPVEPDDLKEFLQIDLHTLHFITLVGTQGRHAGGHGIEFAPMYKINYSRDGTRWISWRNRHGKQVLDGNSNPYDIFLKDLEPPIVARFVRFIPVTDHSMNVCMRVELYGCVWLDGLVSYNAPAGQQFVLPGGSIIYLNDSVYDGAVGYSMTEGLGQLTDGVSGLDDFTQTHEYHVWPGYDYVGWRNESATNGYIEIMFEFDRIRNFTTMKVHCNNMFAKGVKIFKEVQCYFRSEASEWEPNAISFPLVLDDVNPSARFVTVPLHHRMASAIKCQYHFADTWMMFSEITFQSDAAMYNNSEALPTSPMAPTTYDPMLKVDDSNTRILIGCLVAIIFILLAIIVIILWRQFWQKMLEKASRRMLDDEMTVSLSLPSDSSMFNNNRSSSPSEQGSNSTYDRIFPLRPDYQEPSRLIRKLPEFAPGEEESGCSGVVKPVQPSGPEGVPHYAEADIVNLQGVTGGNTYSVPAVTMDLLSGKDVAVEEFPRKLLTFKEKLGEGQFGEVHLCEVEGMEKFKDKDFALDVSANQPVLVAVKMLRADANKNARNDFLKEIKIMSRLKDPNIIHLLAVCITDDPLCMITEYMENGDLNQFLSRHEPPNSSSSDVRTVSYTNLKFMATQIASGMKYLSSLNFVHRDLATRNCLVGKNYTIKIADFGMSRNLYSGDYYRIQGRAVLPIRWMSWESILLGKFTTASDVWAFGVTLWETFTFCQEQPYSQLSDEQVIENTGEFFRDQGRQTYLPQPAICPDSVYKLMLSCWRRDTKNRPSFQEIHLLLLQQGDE
- assayNotes: Affinity Biochemical interaction (Radiometric assay (10 µM ATP, Reaction Biology)) EUB0000156b DDR2
measuredQuantity: IC50

INSERT INTO results (structurenotation, measured) VALUES
  ('CN1CCN(Cc2cc(NC(=O)c3ccc4c(c3)CN(c3ccccc3)CC4)cc(C(F)(F)F)c2)CC1', '> 10 µM');

Data origin, for the record: ChEMBL document CHEMBL5210307
